src = paper PMC10397247

In this section, each of the binders is paired with its reported interaction score.
Target: T1, O9
T1 chain: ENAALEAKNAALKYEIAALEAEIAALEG
Test: two-hybrid library CC0;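 also: natural log of median RNA to DNA barcode read ratio; higher means stronger binding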
Settings: mean of both orientations
// keep it numeric: no unit symbol after the value

[[record]]
binder = "KNAALKAKIAALKYENAALEAKIAALKG [O6]"
value_observed = -2.41

[[record]]
binder = "ENAALEAEIAALEYKNAALKAEIAALEG [O5]"
value_observed = -2.73

[[record]]
binder = "ENAALEAEIAALEYENAALEAKIAALKG [O14]"
value_observed = -2.64


// interaction score lookup, key: KNAALKAENAALEYEIAALEAEIAALEG [O1]
-2.49

Request the reported interaction score associated with KIAALKAEIAALEYENAALEAENAALEG [O11]
-2.79

I am curious: what interaction score value has been reported for KIAALKAKNAALKYEIAALEAKNAALKG [O16] ?
-2.65

Form field: reported interaction score of ENAALEAKNAALKYEIAALEAEIAALEG [O9]
-2.72
